# assay_target: hCB2 (Homo sapiens, UniProt P34972)
# Construct: gene CNR2; full-length receptor in CHO-K1 cells, membranes or intact cells; PathHunter CHO-K1-HOMSA-CNR2 for beta-arrestin
# Sequence (P34972 whole entry): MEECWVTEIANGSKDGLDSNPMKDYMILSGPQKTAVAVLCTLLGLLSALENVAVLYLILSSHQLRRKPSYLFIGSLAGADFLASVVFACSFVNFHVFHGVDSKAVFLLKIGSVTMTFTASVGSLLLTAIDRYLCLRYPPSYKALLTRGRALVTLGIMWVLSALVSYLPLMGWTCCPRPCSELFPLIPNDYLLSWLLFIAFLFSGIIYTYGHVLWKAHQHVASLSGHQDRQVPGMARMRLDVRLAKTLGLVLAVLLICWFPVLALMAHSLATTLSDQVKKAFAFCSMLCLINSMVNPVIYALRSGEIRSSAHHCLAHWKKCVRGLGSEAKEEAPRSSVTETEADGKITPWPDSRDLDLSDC
# protocol_summary: forskolin-induced cAMP, GloSensor, CHO-hCB2 cells
# Type: cell-based
# condition_summary: read-out: CHO cells / h CB2 cAMP
measured_quantity: IC50
The answer should read as a number with its unit following.

Q: What does the data say about its IC50? Entry: C=CCc1ccc(OC)c(-c2ccc(O)c(CC=C)c2)c1 [27a]
Result: 710 nM

###

# assay_target: hCOX-2 (Homo sapiens, UniProt P35354)
# Construct: gene PTGS2
# Sequence (P35354 18-604): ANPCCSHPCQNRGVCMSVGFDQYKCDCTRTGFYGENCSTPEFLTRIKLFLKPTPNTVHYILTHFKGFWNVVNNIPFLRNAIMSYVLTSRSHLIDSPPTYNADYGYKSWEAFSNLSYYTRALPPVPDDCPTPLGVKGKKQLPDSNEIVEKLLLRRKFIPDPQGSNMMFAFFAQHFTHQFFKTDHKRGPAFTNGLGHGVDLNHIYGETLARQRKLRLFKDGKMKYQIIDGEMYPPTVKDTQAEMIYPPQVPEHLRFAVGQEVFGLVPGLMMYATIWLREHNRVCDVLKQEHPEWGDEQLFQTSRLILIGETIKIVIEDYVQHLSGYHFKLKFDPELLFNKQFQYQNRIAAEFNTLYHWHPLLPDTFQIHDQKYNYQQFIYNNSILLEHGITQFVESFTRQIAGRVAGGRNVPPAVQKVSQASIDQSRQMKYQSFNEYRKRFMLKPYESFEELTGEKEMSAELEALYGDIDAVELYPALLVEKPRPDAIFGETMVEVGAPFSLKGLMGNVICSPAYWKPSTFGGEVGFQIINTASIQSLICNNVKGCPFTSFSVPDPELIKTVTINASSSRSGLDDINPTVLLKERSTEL
# protocol_summary: fluorescent COX inhibitor assay (ADHP), recombinant hCOX-2
# Format: biochemical
# condition_summary: read-out: h COX-2 / AA
measured_quantity: pIC50
A value of pIC50 is the negative decimal logarithm of a concentration given in moles per litre.

{"compound": "C=CCc1ccc(OC)c(-c2ccc(O)c(CC=C)c2)c1 [27a]", "pIC50": 5.92}
{"compound": "C=CCc1ccc(OCCCC)c(-c2ccc(O)c(CC=C)c2)c1 [34a]", "pIC50": 5.37}

Now look at this entry.
Q: Any idea what pIC50 came out for CCC(C)c1ccc(O)c(-c2cc(C(C)CC)ccc2O)c1 (stereo not drawn) on hCOX-2 (Homo sapiens, UniProt P35354)?
Result: 4.99

###

# assay_target: hCB2 (Homo sapiens, UniProt P34972)
# Construct: gene CNR2; full-length receptor in CHO-K1 cells, membranes or intact cells; PathHunter CHO-K1-HOMSA-CNR2 for beta-arrestin
# protocol_summary: […]GTPγS binding, CHO-hCB2 membranes
# Assay type: biochemical
# condition_summary: read-out: CHO membranes / h CB2 [ ^35 S] GTPγS
measured_quantity: pEC50
Conceptually, pEC50 converts a concentration in mol/L into minus its log10.

Q: Given the entry C=CCc1ccc(OC)c(-c2ccc(O)c(CC=C)c2)c1 [27a] , what pEC50 was observed with hCB2 (Homo sapiens, UniProt P34972)?
Result: 6.74

###

# assay_target: hCB2 (Homo sapiens)
# Construct: gene CNR2; full-length receptor in CHO-K1 cells, membranes or intact cells; PathHunter CHO-K1-HOMSA-CNR2 for beta-arrestin
# protocol_summary: [3H]CP55, […] displacement, CHO membranes
# Assay type: binding
# condition_summary: read-out: CHO membranes / h CB 2
Documented Ki across a set of molecules
Dear colleague, please return just the value in µM, with no unit written.

{"molecule": "C=CCc1ccc(OCCCC)c(-c2ccc(O)c(CC=C)c2)c1 [34a]", "assay_target": "hCB2 (Homo sapiens)", "Ki / µM": 0.35}

Q: Please report the recorded Ki for C=CCc1ccc(OC)c(-c2ccc(O)c(CC=C)c2)c1 [27a] .
Result: 0.11

###

# assay_target: hCB2 (Homo sapiens)
# Construct: gene CNR2; full-length receptor in CHO-K1 cells, membranes or intact cells; PathHunter CHO-K1-HOMSA-CNR2 for beta-arrestin
# protocol_summary: […]GTPγS binding, CHO-hCB2 membranes
# Assay type: biochemical
# condition_summary: read-out: EC50
measured_quantity: pEC50
pEC50 here: minus log base 10 of the concentration, concentration in moles per litre.

Q: # get_value(readout='pEC50', item= CCCCC/C=C\C/C=C\C/C=C\C/C=C\CCCC(=O)OC(CO)CO [2-AG] )
Result: 7.13

###

What follows is a record of pKi for UniProtKB P21554.
Sequence (P21554 whole entry): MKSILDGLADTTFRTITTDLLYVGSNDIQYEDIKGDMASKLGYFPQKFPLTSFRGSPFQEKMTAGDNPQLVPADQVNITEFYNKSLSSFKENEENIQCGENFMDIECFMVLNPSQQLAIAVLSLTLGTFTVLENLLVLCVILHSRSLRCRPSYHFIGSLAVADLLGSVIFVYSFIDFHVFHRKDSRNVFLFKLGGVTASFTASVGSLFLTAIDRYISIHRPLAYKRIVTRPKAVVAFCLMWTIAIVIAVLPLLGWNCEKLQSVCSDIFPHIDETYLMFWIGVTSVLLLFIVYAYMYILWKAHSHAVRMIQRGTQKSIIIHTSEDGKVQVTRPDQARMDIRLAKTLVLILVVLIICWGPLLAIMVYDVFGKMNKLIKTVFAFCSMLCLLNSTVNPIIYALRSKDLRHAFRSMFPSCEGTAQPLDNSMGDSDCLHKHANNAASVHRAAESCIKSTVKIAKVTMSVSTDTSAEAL
Schema: pKi number; meaning minus log10 of the concentration expressed in molar units.

Q: Which pKi value is on record for C=CCc1ccc(OC)c(-c2ccc(O)c(CC=C)c2)c1 [27a] ?
Result: 6.10

Q: Would you mind doing C=CCc1ccc(OCCCC)c(-c2ccc(O)c(CC=C)c2)c1 [34a] as well?
Result: 5.95

Provenance of the data: paper PMC4490613
